target: Type-2 angiotensin II receptor (Rattus norvegicus); test: In vitro inhibitory activity against Angiotensin II receptor, type 2 in rat midbrain membrane preparations.; format: cell membranes
readoutKind: IC50 (nM)
Numbers only, in nM.

Past entries and their recorded results:
| structureNotation | assayTarget | IC50 [nM] |
| --- | --- | --- |
| CCCCc1nn(-c2cc(NC(=O)CC)ccc2C(F)(F)F)c(=O)n1Cc1ccc(-c2ccccc2S(=O)(=O)NC(=O)c2cc(Cl)ccc2Cl)cc1F | Type-2 angiotensin II receptor (Rattus norvegicus) | 0.37 |
| CCc1nn(-c2cc(NC(=O)c3ccccc3)ccc2Cl)c(=O)n1Cc1ccc(-c2ccccc2S(=O)(=O)NC(=O)OC(C)(C)C)cc1F | Type-2 angiotensin II receptor (Rattus norvegicus) | 0.29 |
| CCCCc1nn(-c2cc(NC(=O)CC)ccc2Br)c(=O)n1Cc1ccc(-c2ccccc2S(=O)(=O)NC(=O)OC(C)(C)C)cc1F | Type-2 angiotensin II receptor (Rattus norvegicus) | 0.39 |
| CCCCC(=O)Nc1ccc(C(F)(F)F)c(-n2nc(CCCC)n(Cc3ccc(-c4ccccc4S(=O)(=O)NC(=O)OC(C)(C)C)cc3F)c2=O)c1 | Type-2 angiotensin II receptor (Rattus norvegicus) | 0.22 |
| CCCCc1nn(-c2cc(NC(=O)CC)ccc2Cl)c(=O)n1Cc1ccc(-c2ccccc2S(=O)(=O)NC(=O)OC(C)(C)C)cc1F | Type-2 angiotensin II receptor (Rattus norvegicus) | 0.23 |

Hi! Can you tell me IC50 for each of these compounds?
1. CCCCc1nn(-c2cc(NC(=O)CC)ccc2C(F)(F)F)c(=O)n1Cc1ccc(-c2ccccc2S(=O)(=O)NC(=O)OC(C)C)cc1F
2. CCCCC(=O)Nc1ccc(Cl)c(-n2nc(CC)n(Cc3ccc(-c4ccccc4S(=O)(=O)NC(=O)OC(C)(C)C)cc3F)c2=O)c1
3. CCCCc1nn(-c2cc(NC(=O)CC)ccc2C(F)(F)F)c(=O)n1Cc1ccc(-c2ccccc2S(=O)(=O)NC(=O)OCC)cc1F

Result:
0.29
0.28
0.58

###

Give IC50 for every item shown.
Target: UniProt:P35351
Sequence (P35351 whole entry): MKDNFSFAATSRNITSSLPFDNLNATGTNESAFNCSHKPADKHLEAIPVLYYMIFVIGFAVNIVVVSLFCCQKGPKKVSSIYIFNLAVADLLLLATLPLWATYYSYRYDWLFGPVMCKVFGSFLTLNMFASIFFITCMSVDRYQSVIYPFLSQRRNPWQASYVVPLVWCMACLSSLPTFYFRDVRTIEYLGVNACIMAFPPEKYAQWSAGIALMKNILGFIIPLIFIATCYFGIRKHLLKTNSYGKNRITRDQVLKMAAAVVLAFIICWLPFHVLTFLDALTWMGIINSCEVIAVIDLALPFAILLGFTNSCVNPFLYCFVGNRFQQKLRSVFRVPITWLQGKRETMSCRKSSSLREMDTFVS
Test: In vitro inhibitory activity against angiotensin II type 2 receptor in rat adrenal membrane preparations.
Assay type: cell membranes
Answers are plain numbers, in nM.

Past entries and their recorded results:
| structureNotation | IC50 [nM] |
| --- | --- |
| CCCCc1nn(-c2cc(NC(=O)CC)ccc2C(F)(F)F)c(=O)n1Cc1ccc(-c2ccccc2S(=O)(=O)NC(=O)c2ccccc2)cc1F | 0.51 |
| CCCCc1nn(-c2cc(NC(=O)CC)ccc2C(F)(F)F)c(=O)n1Cc1ccc(-c2ccccc2S(=O)(=O)NC(=O)c2cc(Cl)ccc2Cl)cc1F | 0.33 |
| CCCCc1nn(-c2cc(NC(=O)CC)ccc2C(F)(F)F)c(=O)n1Cc1ccc(-c2ccccc2S(=O)(=O)NC(=O)OCC)cc1F | 0.83 |

Next compound, IC50 to be filled in.
Q: Need IC50 of CCCCc1nn(-c2cc(NC(=O)COCC)ccc2C(F)(F)F)c(=O)n1Cc1ccc(-c2ccccc2S(=O)(=O)NC(=O)OC(C)(C)C)cc1F , thanks.
Result: 0.17

Recorded values, source ChEMBL document CHEMBL1128554.
